src = the supplement of paper PMC11451515

System: SEM cells
Assay: cell viability relative to DMSO control; higher = less cytotoxic
Settings: RPMI 5 mM glucose + 10% FBS; 48 h; 0.00702 µM
Metric: cell viability

{"columns": ["Sample smiles", "Observed"],
 "data": [
  ["Nc1ncnc2ccccc12", "118%"],
  ["Cc1cc(Nc2cc(CN3CCOCC3)c3nc(C)c(Cc4ccc(Cl)cc4F)n3n2)[nH]n1", "114%"],
  ["COc1cc([C@H]2Oc3cc([C@H]4Oc5cc(O)cc(O)c5C(=O)[C@@H]4O)ccc3O[C@@H]2CO)ccc1O", "117%"],
  ["CCOC(=O)c1cncn1[C@H](C)c1ccccc1", "97.4%"],
  ["CCCCCCCCCC(=O)N[C@@H](Cc1c[nH]c2ccccc12)C(=O)N[C@H](CC(N)=O)C(=O)N[C@@H](CC(=O)O)C(=O)N[C@@H]1C(=O)NCC(=O)N[C@@H](CCCN)C(=O)N[C@@H](CC(=O)O)C(=O)N[C@H](C)C(=O)N[C@@H](CC(=O)O)C(=O)NCC(=O)N[C@H](CO)C(=O)N[C@@H]([C@@H](C)CC(=O)O)C(=O)N[C@@H](CC(=O)c2ccccc2N)C(=O)O[C@@H]1C", "123%"],
  ["Cn1cc(/C=C2\\C(=O)Nc3cccnc32)c2ccccc21", "122%"],
  ["ClC1=CC\\2=C(OC3=C(C=CC=C3)\\N=C2N4CCNCC4)C=C1", "95%"]
]}
